# method-description: in vivo
# assay-setup: male, C57BL/6, mouse, po, 10 mg/kg, B/P, 45 min
measurement-label: Kp

So what does the record say about Kp for O=c1c2c3nc(n2Cc2ccc(Cl)cc2)Oc2ccc(F)c(c2)OCCCCCCn3c(=O)n1CCCO ?
2.51

====

# target-of-assay: TRPC5 (Homo sapiens)
# Sequence (Q9UL62 1-973): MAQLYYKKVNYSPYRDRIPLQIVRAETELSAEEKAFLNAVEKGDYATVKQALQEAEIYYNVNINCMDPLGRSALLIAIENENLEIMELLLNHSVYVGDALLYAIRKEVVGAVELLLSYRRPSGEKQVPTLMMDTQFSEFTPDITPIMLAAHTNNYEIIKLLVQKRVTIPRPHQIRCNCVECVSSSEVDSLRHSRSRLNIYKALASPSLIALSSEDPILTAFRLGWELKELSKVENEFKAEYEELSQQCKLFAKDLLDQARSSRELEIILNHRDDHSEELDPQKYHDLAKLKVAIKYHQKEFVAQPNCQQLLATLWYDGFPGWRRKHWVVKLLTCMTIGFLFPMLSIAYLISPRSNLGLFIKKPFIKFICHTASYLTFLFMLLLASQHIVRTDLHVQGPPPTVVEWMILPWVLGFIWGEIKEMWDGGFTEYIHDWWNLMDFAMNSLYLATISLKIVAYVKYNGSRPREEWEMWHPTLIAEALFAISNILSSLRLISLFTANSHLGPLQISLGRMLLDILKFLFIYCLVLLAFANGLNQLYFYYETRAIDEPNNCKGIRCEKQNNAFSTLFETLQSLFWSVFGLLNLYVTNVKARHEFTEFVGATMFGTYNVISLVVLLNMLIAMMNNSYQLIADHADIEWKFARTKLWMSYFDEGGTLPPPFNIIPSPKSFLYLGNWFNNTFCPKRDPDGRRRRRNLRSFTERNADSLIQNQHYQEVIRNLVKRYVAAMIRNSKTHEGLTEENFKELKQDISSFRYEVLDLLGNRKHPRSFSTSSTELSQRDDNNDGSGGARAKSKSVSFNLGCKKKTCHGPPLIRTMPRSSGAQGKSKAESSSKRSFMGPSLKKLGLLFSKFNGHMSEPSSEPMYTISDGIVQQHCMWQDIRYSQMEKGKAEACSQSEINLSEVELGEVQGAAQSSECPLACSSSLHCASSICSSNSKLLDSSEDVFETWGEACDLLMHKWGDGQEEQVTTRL
# method-description: cell-based
# assay-setup: HEK293T, 100 nmol/L Englerin A; read-out: IC50, inhibition of TRPC5, calcium flux assay
Categorized via IC50: bin 1 = under 10 nM, bin 2 = from 10 nM up to 800 nM, bin 3 = 800 nM and over

Observe how each entry below is paired with its result.
>>> df
                               input_smiles  class_label
0  O=c1c2c3nc(n2Cc2ccc(Cl)cc2)Oc2ccc(F)c(c2)OCCCCCCn3c(=O)n1CCCO        bin 1
1  O=c1c2c3nc(n2Cc2ccc(Cl)cc2)Oc2cccc(c2)OCCCCCCn3c(=O)n1CC(F)(F)CO        bin 2
2  O=c1c2c3nc(n2Cc2nccs2)Oc2cccc(c2)OCCCCCCn3c(=O)n1CCCO        bin 3

Consider O=c1c2c3nc(n2Cc2ccc(Cl)cc2)Oc2cc(ccc2Cl)OCCCCCCn3c(=O)n1CCCO . To which IC50 class does it belong?
bin 2

Kindly identify the class of O=c1c2c3nc(n2Cc2ccc(Cl)cc2)Oc2cccc(c2)OCCCCCCn3c(=O)n1CCCO .
bin 1
